Collected MIC values appear next to each entry.
system: S. pneumoniae+ GC 4465; assay: MIC, broth microdilution; conditions: Streptococcus pneumoniae, read-out: MINIMAL INHIBITORY CONCENTRATION MIC, pre-incubated in Mouse Serum

{"ENTRY SMILES": "Cc1ccc(C(=O)OCOC(=O)N(CC(=O)Nc2cc(N(C)C)c3c(c2O)C(=O)C2=C(O)[C@]4(O)C(=O)C(C(N)=O)=C(O)[C@@H](N(C)C)[C@@H]4C[C@@H]2C3)C(C)(C)C)cc1", "UNIT OF MEASUREMENT": "µg/mL", "MIC": 2}
{"ENTRY SMILES": "CCCCN(CC(=O)Nc1cc(N(C)C)c2c(c1O)C(=O)C1=C(O)[C@]3(O)C(=O)C(C(N)=O)=C(O)[C@@H](N(C)C)[C@@H]3C[C@@H]1C2)C(=O)OCOC(=O)c1ccc(-c2ccccc2)cc1", "UNIT OF MEASUREMENT": "µg/mL", "MIC": 4}
{"ENTRY SMILES": "CN(C)c1cc(NC(=O)CN(C(=O)OCOC(=O)C2CCCC2)C(C)(C)C)c(O)c2c1C[C@H]1C[C@H]3[C@H](N(C)C)C(O)=C(C(N)=O)C(=O)[C@@]3(O)C(O)=C1C2=O", "UNIT OF MEASUREMENT": "µg/mL", "MIC": 1}
{"ENTRY SMILES": "CCC(C)(C)C(=O)OCOC(=O)N(CC(=O)Nc1cc(N(C)C)c2c(c1O)C(=O)C1=C(O)[C@]3(O)C(=O)C(C(N)=O)=C(O)[C@@H](N(C)C)[C@@H]3C[C@@H]1C2)C(C)(C)C", "UNIT OF MEASUREMENT": "µg/mL", "MIC": 4}
{"ENTRY SMILES": "CCCCN(CC(=O)Nc1cc(N(C)C)c2c(c1O)C(=O)C1=C(O)[C@]3(O)C(=O)C(C(N)=O)=C(O)[C@@H](N(C)C)[C@@H]3C[C@@H]1C2)C(=O)OCOC(=O)c1cc(C)cc(C)c1", "UNIT OF MEASUREMENT": "µg/mL", "MIC": 4}
